# COND: Ebola virus entry assay, reporter ratio channel; Channel type: primary
Active and inactive are the calls of the source. The rule behind the calls is not given here.
Classes used: true (active), false (inactive)

# COMPOUND, ASSIGNED CLASS
measured = [
    ("CC(=O)/C=C/C=C1/C2CCC(C2)C1(C)C (stereo unspecified)", "false"),
    ("CC(=O)O[C@H]1C[C@@H]2CC[C@@H]3[C@H](CC[C@@]4(C)[C@H]3C[C@H]([N+]3(C)CCCCC3)[C@@H]4OC(C)=O)[C@@]2(C)C[C@@H]1N1CCCCC1", "false"),
    ("NCC1CCC(C(=O)Oc2ccc(CCC(=O)O)cc2)CC1 (stereo unspecified)", "false"),
    ("NCCNc1cccc2ccccc12", "true"),
    ("CCc1cccc(N(C)C(N)=Nc2cccc3ccccc23)c1", "true"),
    ("CCNC(=O)N1CCN(CCCC(c2ccc(F)cc2)c2ccc(F)cc2)CC1", "true"),
]

###

# EXPERIMENTAL TARGET: ATP-dependent 6-phosphofructokinase (Trypanosoma brucei brucei)
# ASSAY PROTOCOL: qHTS Assay to Find Inhibitors of T. brucei phosphofructokinase: hit validation (AID 492961)
# COND: T. brucei PFK, ADP-Glo luminescence; series mostly up to 51.4 µM
Results filed as inconclusive are left out. The source made the active and inactive calls. Calls come from the whole dose curve; as a rule, active = well fitted inhibition curve with a large enough effect; inconclusive = small, poorly fitted or top-dose-only effect, or effect the other way; inactive = flat fitted curve, though single readings scatter. Bridge positions count the residues as written; N and C are the ends. Square brackets hold non-standard residues; d marks the D form. Peptide text beside a SMILES is read from it. hArg = N=C(N)NCCCC[C@H](N)C(=O)O; Mpa = O=C(O)CCS
Classes used: TRUE = active, FALSE = inactive

# COMPOUND, ASSIGNED CLASS
rows = [
    ("NC(=O)OCCCc1ccccc1", "FALSE"),
    ("O=C1NCN(c2ccccc2)C12CCN(CCCOc1ccc(F)cc1)CC2", "FALSE"),
    ("C#C[C@]1(O)CC[C@H]2[C@@H]3CCC4=CC(=O)CCC4=C3C=C[C@@]21CC", "FALSE"),
    ("CCC1(c2ccccc2)CCC(=O)NC1=O (stereo unspecified)", "FALSE"),
    ("C=CCOC(Cn1ccnc1)c1ccc(Cl)cc1Cl (stereo unspecified)", "FALSE"),
    ("O=C(O)c1nn(Cc2ccc(Cl)cc2Cl)c2ccccc12", "FALSE"),
    ("Oc1ccc2[nH]cc(CCCCN3CC=C(c4ccccc4)CC3)c2c1", "FALSE"),
    ("CCNc1nc(Cl)nc(NCC)n1", "FALSE"),
    ("C[N+]1(CCC(C(N)=O)(c2ccccc2)c2ccccc2)CCCCC1", "FALSE"),
    ("Cc1ccc(N=CN(C)C=Nc2ccc(C)cc2C)c(C)c1", "FALSE"),
    ("CCCCCCCCCCCC[N+](C)(C)CCOc1ccccc1", "FALSE"),
    ("COP(=O)(OC)OC=C(Cl)Cl", "FALSE"),
    ("NC(=O)[C@@H]1CSSCCC(=O)N[C@@H](CCCCN=C(N)N)C(=O)NCC(=O)N[C@@H](CC(=O)O)C(=O)N[C@@H](Cc2c[nH]c3ccccc23)C(=O)N2CCC[C@H]2C(=O)N1 ([Mpa][hArg]GDWPC-NH2; disulfide 1-7)", "FALSE"),
    ("c1cc2c(c(N3CCNCC3)c1)OCCO2", "FALSE"),
    ("C[C@]12C=CC(=O)C=C1CC[C@@H]1[C@@H]2CC[C@@]2(C)[C@H]1CC[C@]2(C)O", "FALSE"),
    ("CCNC(=O)NCc1cccc(Cl)c1", "TRUE"),
    ("CCC(=O)O[C@H]1CC[C@H]2[C@@H]3CCC4=CC(=O)CC[C@]4(C)[C@H]3CC[C@]12C", "FALSE"),
    ("OC(O)C(Cl)(Cl)Cl", "FALSE"),
    ("C[C@]12CC[C@H]3[C@@H](CC=C4C[C@@H](O)CC[C@@]43C)[C@@H]1CC[C@@H]2O", "FALSE"),
    ("CCN(Cc1ccc(Cl)nc1)/C(=C/[N+](=O)[O-])NC", "FALSE"),
    ("CCN(CC)CCOC(=O)C(C)(c1ccccc1)c1ccccc1", "FALSE"),
    ("CC(Cc1ccccc1)NCc1ccccc1Cl (stereo unspecified)", "FALSE"),
    ("C[N+](C)(C)CCOC(=O)C(O)(c1ccccc1)c1ccccc1", "FALSE"),
    ("O=C(NC(=O)c1c(F)cccc1F)Nc1cc(Cl)c(OC(F)(F)C(F)C(F)(F)F)cc1Cl (stereo unspecified)", "FALSE"),
    ("COCC(=O)N(c1c(C)cccc1C)C(C)C(=O)OC (stereo unspecified)", "FALSE"),
    ("Nc1ccc(N)cc1", "FALSE"),
]
